All figures here come from PubChem BioAssay AID1159580.

Assay details: chemical genetic growth profiling, strain panel (AID 1159580);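 also: tested at 20 µM; growth read once vehicle control cultures reached saturation at 30 °C; lower values mean less growth of the strain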
Assay conditions: S. cerevisiae deletion strains, growth OD, locus YLR342W, strain FKS1 (second series), hits give low values
About 2,000 (36%) of roughly 5,500 compounds were called active. About 18% were inconclusive and are not listed. The list shows a part of the results.
The label Met is reserved for normalized growth strictly under 1; Not met covers values equal to or above it.

Observe how each entry below is paired with its result.
1) CC(=O)Oc1cccc(C(=O)O)c1OC(C)=O : Not met
2) C[C@]12CCC(=O)C=C1CCC1C2C(=O)C[C@@]2(C)C1CC[C@]2(O)C(=O)CO (stereo partly specified) : Not met

Q: Hello, I'm reviewing records and need to know if normalized growth of `CCC1(CC)C(=O)C=CNC1=O` is below 1. Could you check?
A: Not met

Q: Is 1 strictly greater than the molecule's reported normalized growth? molecule: C#CC1(O)CCC2C3CCC4=CC(=O)CCC4(C)C3CCC21C (stereo unspecified)
A: Met

Q: Confirm or reject: normalized growth of `COc1cc(O)cc(OC)c1OC` lies strictly below 1
A: Not met
